target: p7NC (Human immunodeficiency virus type 1 group M subtype B); construct: The NC protein of HIV-1 (MN) p7NC was expressed in E. coli; made in house; host or cells: E. coli (vector pMAL-c); assay: HPLC analysis of reaction products of purified p7NC with reagent; format: biochemical, HIV-1; set-up: key: reaction products / Protein (HPLC): reaction rate: formation of non-native, intra-protein disulfide links (designated “Disulfides”); some of the reagents form adducts with the cysteine residues as well (designated “Adducts”); slow: “Slow” reactions are those in which greater than 10% of the p7NC protein remained in its native form after the 10 minute incubation with reagent; very slow: “Very slow” reactions are those in which greater than 50% of the p7NC protein remained in its native form after the 10 minute incubation with reagent; fast: “Fast” reactions result in complete transformation of the p7NC protein to non-native conformations during the 10 minute incubation period; conditions: 63 μM p7NC, 6 reagent : 1 protein, 10 minutes
parameter: Protein (HPLC): reaction products

{"compound": "S=C(SSC(=S)N1CCCCC1)N1CCCCC1 [Dicyclopentamethylenethiuram Disulfide]", "parameter": "Protein (HPLC): reaction products", "result": "Disulfides"}
{"compound": "CC(C)N(C(=S)SSC(=S)N(C(C)C)C(C)C)C(C)C [Tetraisopropylthiuram Disulfide]", "parameter": "Protein (HPLC): reaction products", "result": "Disulfides"}

====

molecular target: p11 Nucleocapsid Protein (p11NC) (Equine infectious anemia virus, UniProt P69732); construct: a variety of disulfide reagents cross-link the p11NC protein in intact viral particles; endogenous in cells; host or cells: intact EIAV particles; experiment: Cross-linking of p11NC in intact EIAV particles (gel-mobility shift); type: biochemical; details: intact EIAV (50 μM), 4× the HIV assay concentrations
Sequence (P69732 360-435): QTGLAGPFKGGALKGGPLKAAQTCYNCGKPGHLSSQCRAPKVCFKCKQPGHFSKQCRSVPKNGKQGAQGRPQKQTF
parameter: X-link T-½ (min), EIAV p11NC (second number)

{"molecule": "c1ccc(SSc2ccccn2)nc1", "result": "~15 min"}
{"molecule": "CC(C)N(C(=S)SSC(=S)N(C(C)C)C(C)C)C(C)C [Tetraisopropylthiuram Disulfide]", "result": "~15 min"}
{"molecule": "CCCCN(CCCC)C(=S)SSC(=S)N(CCCC)CCCC [Tetrabutylthiuram Disulfide]", "result": ">60 min"}
{"molecule": "S=C(SSC(=S)N1CCCCC1)N1CCCCC1 [Dicyclopentamethylenethiuram Disulfide]", "result": "~10 min"}

Enquiry: State its X-link T-½ (min), EIAV p11NC (second number) for this molecule: CCN(CC)C(=S)SSC(=S)N(CC)CC [Tetraethylthiuram Disulfide, reference compound]
Return: ~15 min

====

target: HIV NC protein in intact virus (Human immunodeficiency virus type 1 group M subtype B, UniProt P05888); construct: endogenous in cells; host or cells: intact HIV virions; test: Cross-linking of NC protein in intact HIV (non-reducing gel-mobility shift, western blot); assay type: biochemical, HIV-1; details: intact HIV generally 12.5 μM, reagent generally 25 μM
parameter: X-link T-½ (min), HIV NC protein (top number)

{"compound": "c1ccc(SSc2ccccn2)nc1 [Aldrithiol-2]", "result": "~15 min"}
{"compound": "[O-][n+]1ccccc1SSc1cccc[n+]1[O-] [2,2-Dithiobis(Pyridine N-Oxide)]", "result": "<<15 min"}
{"compound": "CN(C)C(=S)SSC(=S)N(C)C [Tetramethylthiuram Disulfide]", "result": "~30 min"}

Enquiry: For the compound CCCCN(CCCC)C(=S)SSC(=S)N(CCCC)CCCC [Tetrabutylthiuram Disulfide] , give its measured X-link T-½ (min), HIV NC protein (top number) value.
Return: ~30 min

Enquiry: Report measured X-link T-½ (min), HIV NC protein (top number); entry is N#Cc1ccccc1SSc1ccccc1C#N [2,2 Dithiobis(benzonitrile)]
Return: <<15 min

====

test system: HIV-1; test: microbe, parasite or virus in culture; settings: Human immunodeficiency virus 1, read-out: TCID (Virus): concentration of reagent required to inactivate half of a standardized number of HIV-1 virus particles
parameter: pIC50
Just the number, please; pIC50 means minus log10 of the concentration in mol/L.

These recorded examples may help you get a feel for the data.
{"compound": "S=C(SSC(=S)N1CCCCC1)N1CCCCC1 [Dicyclopentamethylenethiuram Disulfide]", "parameter": "pIC50", "result": 5.40}
{"compound": "CN(C)c1ccc(SSc2ccc(N(C)C)cc2)cc1 [4-(dimethylamino)phenyl disulfide]", "parameter": "pIC50", "result": 4.76}
{"compound": "CCN(CC)C(=S)SSC(=S)N(CC)CC [Tetraethylthiuram Disulfide, reference compound]", "parameter": "pIC50", "result": 4.18}

Enquiry: Fill: pIC50 (HIV-1) for this compound O=C(SSC(=O)c1ccccc1)c1ccccc1 [Benzoyl Disulfide]
Return: 4.17

====

biological target: p11 Nucleocapsid Protein (p11NC) (Equine infectious anemia virus, UniProt P69732); construct: a variety of disulfide reagents cross-link the p11NC protein in intact viral particles; endogenous in cells; host or cells: intact EIAV particles; assay: Cross-linking of p11NC in intact EIAV particles (gel-mobility shift); format: biochemical; conditions: intact EIAV (50 μM), 4× the HIV assay concentrations
Parameter X-link T-½ (min), EIAV p11NC (second number): see the listing below.

Consider the worked cases shown below.
{"compound": "N#Cc1ccccc1SSc1ccccc1C#N [2,2 Dithiobis(benzonitrile)]", "result": "~15 min"}
{"compound": "CN(C)C(=S)SSC(=S)N(C)C [Tetramethylthiuram Disulfide]", "result": "~15 min"}

Switching to the query record.
Enquiry: // fetch X-link T-½ (min), EIAV p11NC (second number) given entry [O-][n+]1ccccc1SSc1cccc[n+]1[O-] [2,2-Dithiobis(Pyridine N-Oxide)]
Return: <15 min

====

X-link T-½ (min), HIV NC protein (top number) by entry:
target: HIV NC protein in intact virus (Human immunodeficiency virus type 1 group M subtype B, UniProt P05888); construct: endogenous in cells; host or cells: intact HIV virions; experiment: Cross-linking of NC protein in intact HIV (non-reducing gel-mobility shift, western blot); assay type: biochemical, HIV-1; details: intact HIV generally 12.5 μM, reagent generally 25 μM

Below: 2 compounds and their reported X-link T-½ (min), HIV NC protein (top number).
{"compound": "S=C(SSC(=S)N1CCCCC1)N1CCCCC1 [Dicyclopentamethylenethiuram Disulfide]", "result": "<<15 min"}
{"compound": "CC(C)N(C(=S)SSC(=S)N(C(C)C)C(C)C)C(C)C [Tetraisopropylthiuram Disulfide]", "result": ">15 min"}

Now examine the next entry.
Enquiry: Answer with the recorded X-link T-½ (min), HIV NC protein (top number) of CCN(CC)C(=S)SSC(=S)N(CC)CC [Tetraethylthiuram Disulfide, reference compound] only.
Return: ~15 min

These measurements were taken from patent US6989263B1.
